Organism: Rattus norvegicus
procedure-text: DrugMatrix - Regimen: Daily Repeat
Format: toxicity, organism-based, Sprague-Dawley
Design: regimen Daily Repeat, gender Male, age 6-8 weeks
study-conditions: in vivo, po, 0 mg/kg, 120 h, tissue Plasma, route oral GAVAGE, dose level Control, time 5 day, vehicle 100 % WATER
value-type: CHOLESTEROL (mg/dL)

compound="Cc1ccc(NC(=O)c2ccc(CN3CCN(C)CC3)cc2)cc1Nc1nccc(-c2cccnc2)n1 [IMATINIB]" value_type=CHOLESTEROL numeric_result=68
compound="C[C@]12C=CC(=O)C=C1CC[C@@H]1[C@@H]2[C@@H](O)C[C@@]2(C)[C@H]1CC[C@]2(O)C(=O)CO [PREDNISOLONE]" value_type=CHOLESTEROL numeric_result=66.5
compound="CN(C)CCOC(c1ccccc1)c1ccccc1 [DIPHENHYDRAMINE]" value_type=CHOLESTEROL numeric_result=82.5

###

Species on record: Rattus norvegicus
procedure-text: DrugMatrix - Regimen: Daily Repeat
Type: toxicity, organism-based, Sprague-Dawley
Design: regimen Daily Repeat, gender Male, age 6-8 weeks
study-conditions: in vivo, po, 0 mg/kg, 72 h, tissue Blood, route oral GAVAGE, dose level Control, time 3 day, vehicle 100 % WATER
Recorded HEMATOCRIT by entry
value-type: HEMATOCRIT (%)

compound="CC(C)NCC(O)c1ccc(NS(C)(=O)=O)cc1 (stereo not given)" numeric_result=33.47
compound="CCN(CC)CCNC(=O)c1cc(S(C)(=O)=O)ccc1OC [TIAPRIDE]" numeric_result=35.35
compound="O.O.O.O.O.O.[Cl-].[Cl-].[Sr+2] [STRONTIUM CHLORIDE HEXAHYDRATE]" numeric_result=35.35
compound="CC(C)(C)CC(C)(C)c1ccc(OCCOCC[N+](C)(C)Cc2ccccc2)cc1.[Cl-] [BENZETHONIUM CHLORIDE]" numeric_result=34.38
compound="CN1[C@@H]2CC[C@H]1C[C@@H](OC(=O)C(CO)c1ccccc1)C2 (stereo not given in full)" numeric_result=32.62
compound=CN(C)CC[C@@H](c1ccc(Cl)cc1)c1ccccn1 numeric_result=35.77
compound="NNc1nncc2ccccc12 [HYDRALAZINE]" numeric_result=34.38
compound=CS(=O)(=O)c1ccc([C@@H](O)[C@@H](CO)NC(=O)C(Cl)Cl)cc1 numeric_result=35.35
compound=Cn1c(=O)c2[nH]cnc2n(C)c1=O.O numeric_result=35.33
compound=Oc1cccc(O)c1O numeric_result=35.07

###

Species: Rattus norvegicus
procedure-text: DrugMatrix - Regimen: Daily Repeat
Format: toxicity, organism-based, Sprague-Dawley
Parameters: regimen Daily Repeat, gender Male, age 6-8 weeks
study-conditions: in vivo, po, 0 mg/kg, […], tissue Blood, route oral GAVAGE, dose level Control, time 14 day, vehicle 100 % SALINE
value-type: ABSOLUTE LYMPHOCYTE (cells/µL)

molecule="Nc1ncnc2c1ncn2[C@@H]1O[C@H](CO)[C@@H](O)[C@H]1F [2'-BETA-FLUORO-2',3'-DEOXYADENOSINE]" numeric_result=6890

###

Organism: Rattus norvegicus
procedure-text: DrugMatrix - Regimen: Daily Repeat
Type: toxicity, organism-based, Sprague-Dawley
Set-up: regimen Daily Repeat, gender Male, age 6-8 weeks
study-conditions: in vivo, po, 0 mg/kg, 120 h, tissue Blood, route oral GAVAGE, dose level Control, time 5 day, vehicle 100 % WATER
Recorded HEMATOCRIT by entry
value-type: HEMATOCRIT (%)

molecule="CN1[C@@H]2CC[C@H]1C[C@@H](OC(=O)C(CO)c1ccccc1)C2 (some centres undefined)" numeric_result=36.17
molecule=CN(C)CC[C@@H](c1ccc(Cl)cc1)c1ccccn1 numeric_result=36.88
molecule=Cn1c(=O)c2[nH]cnc2n(C)c1=O.O numeric_result=36.13
molecule="NNc1nncc2ccccc12 [HYDRALAZINE]" numeric_result=36.62
